Ref: the RNAGym collection of RNA variant scans (doi:10.1093/nar/gkz1192)

Items are presented alongside their recorded self-cleavage.
B1: CPEB3 Ribozyme (parent)
chain: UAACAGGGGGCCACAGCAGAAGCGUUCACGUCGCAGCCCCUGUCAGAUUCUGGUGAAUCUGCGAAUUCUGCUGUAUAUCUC

# Variants of: B1
# protocol details: self-cleavage, relative activity (ratio to wild type); higher = more cleavage; in vitro, sequencing
# print the numeric value only

1) U41C U76A | 1.17
2) A2U C17U | 0.31
3) A18U A28U | 0.29
4) G6A A21U | 0.31
5) G19A A75G | 0.09

Problem: Can you look up the measured self-cleavage of A18U C81U for me?
Result: 0.51

Problem: Can you look up the measured self-cleavage of A45U U74C for me?
Result: 0.87

Problem: Can you look up the measured self-cleavage of G9U U43C for me?
Result: 0.15

Problem: Can you look up the measured self-cleavage of C29G U58C for me?
Result: 0.52

Problem: Can you look up the measured self-cleavage of C44A A45G for me?
Result: 0.61

Problem: Can you look up the measured self-cleavage of A20G A75G for me?
Result: 0.81

Problem: Can you look up the measured self-cleavage of C12U U60A for me?
Result: 1.04

Problem: Can you look up the measured self-cleavage of C34U A64G for me?
Result: 0.45

Problem: Can you look up the measured self-cleavage of U26G U74C for me?
Result: 0.39
